Listed molecules paired with reported z-score
Test: E. coli growth modulation, two-sided OD650, primary screen, E. coli filamentation project, strain DRC41, 24 h (AID 1093);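 further: MC1000 strain lacking acrAB efflux and sulA so SOS filamentation is blocked; test concentration not given here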
Details: OD650, 24 h, higher = more signal, called active from +8 up or from −8 down
Lab note: write the figure by itself, no unit.

Please review the following examples before continuing.
1. O=C(NN=C1C[C@@H](O)[C@@H](O)[C@@H]2[C@@H]3C(=O)N(c4cccc(Oc5ccccc5)c4)C(=O)[C@@H]3CC[C@H]12)OCc1ccccc1 = 1.24
2. O=C1O[C@@H](c2ccccc2)[C@@H](c2ccccc2)N2[C@@H](c3ccccc3OCCO)[C@]3(C(=O)Nc4ccc(C#CCCO)cc43)[C@@H](C(=O)O)[C@H]12 = 0.481
3. C#CCCCON=C1C[C@@H](O)[C@@H](O)[C@@H]2[C@@H]3C(=O)N([C@@H](C)c4ccccc4)C(=O)[C@@H]3CC[C@H]12 = 0.229

Value of measured z-score for the entry `CO[C@@H]1COC(=O)CC=C[C@@H](C)[C@@H]2C=C[C@H](O)[C@@H](COC(=O)[C@H](C)NC(=O)CC=C[C@H]1C)O2` : 0.0967

z-score reported for this molecule `C=C(/C(=C/C[C@H](OC(=O)c1ccncc1)c1ccc(OCCO)cc1)c1cnc2ccccc2c1)C(C)C` : -0.13

Quick note, z-score for `CO[C@H]1O[C@H](CO)[C@@H](OC(=O)Nc2ccc3c(c2)OCO3)[C@H](OC(=O)Nc2ccccc2-c2ccccc2)[C@@H]1OC(=O)Nc1ccccc1-c1ccccc1` landed at 0.39
